Attribute: pIC50
- System Tested: HPK1 (Homo sapiens (Human))
- Sequence (Q92918 1-346 limits assumed): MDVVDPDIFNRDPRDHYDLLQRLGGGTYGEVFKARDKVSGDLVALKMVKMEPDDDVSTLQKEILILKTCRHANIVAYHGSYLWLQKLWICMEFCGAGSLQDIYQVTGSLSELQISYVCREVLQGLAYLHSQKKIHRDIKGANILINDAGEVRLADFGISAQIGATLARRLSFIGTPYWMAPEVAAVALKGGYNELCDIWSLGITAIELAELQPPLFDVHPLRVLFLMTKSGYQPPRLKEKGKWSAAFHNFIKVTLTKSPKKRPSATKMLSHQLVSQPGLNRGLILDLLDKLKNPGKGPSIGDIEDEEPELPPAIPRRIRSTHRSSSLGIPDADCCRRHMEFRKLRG
- Procedure Text: HPK1 Inhibition Assay (ADP-Glo kinase assay)
- Assay type: biochemical
- Measurement Conditions: ATP 10 μM
pIC50: −log10 of the molar value.

Below, 2 compounds whose answers are already recorded.
Cn1c(C(C)(C)C)nc2c(N3CC[C@@H](N)C3)c(NC(=O)c3ccc(=O)n(-c4c(F)cccc4F)n3)ccc21 > 7.00
Cc1nn(C(C)C)c2ccc(NC(=O)c3ccc(=O)n(-c4c(F)cccc4F)n3)c(N3CC[C@@H](N)C3)c12 > 7.00

Next item in the queue.
Input line: Please give the measured pIC50 for this compound: CC(C)(C)C(C)(C)n1cc2c(N3C[C@H](N)C4(CC4)C3)c(NC(=O)c3ccc(=O)n(-c4c(F)cccc4F)n3)ccc2n1
Output line: > 7.00

----------
- System Tested: UniProt:Q92918
- Procedure Text: HPK1 Inhibition Assay (ADP-Glo kinase assay)
- Format: biochemical
- Measurement Conditions: ATP 10 μM
Experimental Readout: IC50

Below, 5 compounds whose answers are already recorded.
Compound	System Tested	Result
C[C@@H]1CN(c2c(NC(=O)c3ccc(=O)n(-c4c(F)cccc4F)n3)ccc3nn(C(C)(C)C)cc23)C[C@@H]1N [Example 234]	UniProt:Q92918	< 100 nM
C[C@@H]1CN(c2c(NC(=O)c3ccc(=O)n(-c4c(F)cccc4F)n3)ccc3c2cnn3C(C)(C)C)C[C@@H]1N [Example 303]	UniProt:Q92918	< 100 nM
CC1(C)CN(c2c(NC(=O)c3ccc(=O)n(-c4c(F)cccc4F)n3)ccc3nn(C(C)(C)C)cc23)C[C@@H]1N [Example 236]	UniProt:Q92918	< 100 nM
N[C@@H]1CCCN(c2c(NC(=O)c3ccc(=O)n(-c4c(F)cccc4F)n3)ccc3c2cnn3[C@H]2CCOC2)C1 [Example 263]	UniProt:Q92918	< 100 nM
C[C@@H]1CN(c2c(NC(=O)c3ccc(=O)n(-c4c(F)cccc4F)n3)ccc3c2cnn3C2CCOCC2)C[C@@H]1N [Example 261]	UniProt:Q92918	< 100 nM

Input line: Query the reported IC50 for UniProt:Q92918; item: CC(C)n1cc2c(N3C[C@@H](C)[C@@H](N)C3)c(NC(=O)c3ccc(=O)n(-c4c(F)cccc4F)n3)ccc2n1 [Example 224]
Output line: < 100 nM

Input line: Do the same for N[C@H]1CN(c2c(NC(=O)c3ccc(=O)n(-c4c(F)cccc4F)n3)ccc3c2cnn3[C@H]2CCCOC2)CC12CC2 [Example 271] please
Output line: < 100 nM

----------
What follows is a record of pIC50 for HPK1 (Homo sapiens (Human), UniProt Q92918).
pIC50: −log10 of the molar value.

Below, 2 compounds whose answers are already recorded.
Compound	pIC50
N[C@H]1CN(c2c(NC(=O)c3ccc(=O)n(-c4c(F)cccc4F)n3)ccc3c2cnn3[C@@H]2CCCOC2)CC12CC2 [Example 272]	> 7.00
CC(C)c1nc2c(N3C[C@H](C)[C@@H](N)C3)c(NC(=O)c3ccc(=O)n(-c4c(F)cccc4F)n3)ccc2n1C [Example 111]	> 7.00

Next item in the queue.
Input line: Please give the measured pIC50 for this compound: CC[C@H](C)n1ncc2c(N3C[C@@H](C)[C@@H](N)C3)c(NC(=O)c3ccc(=O)n(-c4c(F)cccc4F)n3)ccc21 [Example 256]
Output line: > 7.00
